molecular target: KRAS G12D (Homo sapiens, UniProt P01116+P62937, G12D); test: Disruption of BRAF RBD interaction with Ras (FRET / MOA assay, with Cyclophilin A); type: biochemical; conditions: read-out: KRAS G12D FRET data, IC50
Sequence (P01116 1-169 isoform P01116-2 G12D limits assumed, one chain of several): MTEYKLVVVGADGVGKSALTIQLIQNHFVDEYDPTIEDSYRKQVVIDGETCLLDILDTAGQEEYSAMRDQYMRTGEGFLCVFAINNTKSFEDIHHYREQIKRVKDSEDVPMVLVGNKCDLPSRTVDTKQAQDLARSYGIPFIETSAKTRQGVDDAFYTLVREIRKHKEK
pIC50: −log10 of the molar value.
Hi there, I'd appreciate the recorded pIC50 for every entry that follows.

Param item = `CCn1c(-c2cccnc2[C@H](C)OC)c2c3cc(ccc31)-c1cc(O)cc(c1)C[C@H](NC(=O)[C@H](C(C)C)N(C)C(=O)[C@H]1CCN(CCO)C1)C(=O)N1CCC[C@H](N1)C(=O)OCC(C)(C)C2` ; retrieve measured pIC50.
7.00 to 8.00

Could you share which pIC50 value was measured for CCn1c(-c2cccnc2[C@H](C)OC)c2c3cc(ccc31)-c1csc(n1)C[C@H](NC(=O)[C@H](C(C)C)N(C)C(=O)N(C)C)C(=O)N1CCC[C@H](N1)C(=O)OCC(C)(C)C2 (racemic) ?
6.00 to 7.00

Recorded pIC50 for `C=CC(=O)N1CC[C@H](C(=O)N(C)[C@H](C(=O)N[C@H]2Cc3cc(O)cc(c3)-c3ccc4c(c3)c(c(-c3c(F)cccc3CCOC)n4CC)CC(C)(C)COC(=O)[C@@H]3CCCN(N3)C2=O)C(C)C)C1` , please?
< 5.00

* * *

molecular target: NRAS Q61R (Homo sapiens, UniProt P01111+P62937, Q61R); experiment: Disruption of BRAF RBD interaction with Ras (FRET / MOA assay, with Cyclophilin A); type: biochemical; conditions: NRAS Q61R; read-out: NRAS Q61R FRET data IC50
Sequence (P01111 whole entry Q61R, one chain of several): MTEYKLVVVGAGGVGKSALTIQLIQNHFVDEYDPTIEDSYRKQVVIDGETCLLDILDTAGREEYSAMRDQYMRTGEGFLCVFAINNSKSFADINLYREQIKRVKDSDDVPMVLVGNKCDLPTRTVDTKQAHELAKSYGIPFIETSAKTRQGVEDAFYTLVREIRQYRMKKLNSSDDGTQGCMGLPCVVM
Endpoint: IC50

Reported IC50 for `C=CC(=O)N1CC[C@H](C(=O)N(C)[C@H](C(=O)N[C@H]2Cc3cc(O)cc(c3)-c3ccc4c(c3)c(c(-c3ccccc3N3CCOCC3)n4CC)CC(C)(C)COC(=O)[C@@H]3CCCN(N3)C2=O)C(C)C)C1` : what is it?
> 10000 nM

Quick check: IC50 of CCn1c(-c2cccnc2[C@H](C)OC)c2c3cc(ccc31)-c1csc(n1)C[C@H](NC(=O)N1CCC[C@@H]1COC)C(=O)N1CCC[C@H](N1)C(=O)OCC(C)(C)C2 (atropisomer, axis not shown) ?
100 to 1000 nM

I would be grateful if you could share the reported IC50 for C=CC(=O)N1CCO[C@H]2CN(C(=O)N(C)[C@H](C(=O)N[C@H]3Cc4cccc(c4)-c4ccc5c(c4)c(c(-c4cccnc4[C@H](C)OC)n5CC)CC(C)(C)COC(=O)C4CCCN(N4)C3=O)C(C)C)C[C@H]21 (stereo partly shown) .
100 to 1000 nM

Returns the measured IC50 for the input molecule. Input: `CCn1c(-c2cccnc2[C@H](C)OC)c2c3cc(ccc31)-c1csc(n1)C[C@H](NC(=O)[C@H](C(C)C)N(C)C(=O)N1CCN(C(=O)CCN(C)C)CC1)C(=O)N1CCC[C@H](N1)C(=O)OCC(C)(C)C2`
10 to 100 nM

* * *

target: KRAS G12V (Homo sapiens, UniProt P01116+P62937, G12V); experiment: Disruption of BRAF RBD interaction with Ras (FRET / MOA assay, with Cyclophilin A); assay type: biochemical; conditions: KRAS G12V; read-out: KRAS G12V FRET data IC50
Sequence (P01116 1-169 isoform P01116-2 G12V limits assumed, one chain of several): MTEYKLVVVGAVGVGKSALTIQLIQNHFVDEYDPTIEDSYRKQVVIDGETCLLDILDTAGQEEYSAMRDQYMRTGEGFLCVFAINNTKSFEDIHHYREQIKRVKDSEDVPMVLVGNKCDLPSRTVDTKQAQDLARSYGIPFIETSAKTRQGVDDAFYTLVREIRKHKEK
pIC50: −log10 of the molar value.
Endpoint: pIC50

Would you mind telling me what pIC50 value was observed for `CCn1c(-c2cccnc2[C@H](C)OC)c2c3cc(ccc31)-c1csc(n1)C[C@H](NC(=O)[C@H](C(C)C)N(C)C(=O)[C@H]1CCCO1)C(=O)N1CCC[C@H](N1)C(=O)OCC(C)(C)C2` ?
5.00 to 6.00

What pIC50 value was documented for this compound, `CCn1c(-c2cccnc2[C@H](C)OC)c2c3cc(ccc31)-c1csc(n1)C[C@H](NC(=O)[C@H](C(C)C)N(C)C(=O)N1CC3(CN(C)CCO3)C1)C(=O)N1CCC[C@H](N1)C(=O)OCC(C)(C)C2` ?
5.00 to 6.00

Please report the recorded pIC50 for `CCn1c(-c2cccnc2[C@H](C)OC)c2c3cc(ccc31)-c1csc(n1)C[C@H](NC(=O)[C@H](C(C)C)N(C)C(=O)N1CCC[C@@H](CN(C)C)C1)C(=O)N1CCC[C@H](N1)C(=O)OCC(C)(C)C2` .
6.00 to 7.00

* * *

Please respond with reported IC50 for every item in the list.
biological target: NRAS Q61R (Homo sapiens, UniProt P01111+P62937, Q61R); assay: Ras-Raf disruption / FRET / MOA assay (BRAF RBD); assay type: biochemical; conditions: NRAS Q61R; read-out: NRAS Q61R FRET data IC50

Name the reported IC50 value associated with the compound CCn1c(-c2cccnc2[C@H](C)OC)c2c3cc(ccc31)-c1cc(O)cc(c1)C[C@H](NC(=O)[C@H](C(C)C)N(C)C(=O)[C@@H]1CCN(C(=O)[C@@H]3CN3)[C@@H]1C)C(=O)N1CCC[C@H](N1)C(=O)OCC(C)(C)C2 (atropisomer, axis not shown)
0.1 to 1 µM

Sample CCn1c(-c2cccnc2[C@H](C)OC)c2c3cc(ccc31)-c1cc(O)cc(c1)C[C@H](NC(=O)[C@H](C(C)C)N(C)C(=O)CN(C)C(=O)[C@H]1C[C@@H]3N[C@@H]3C1)C(=O)N1CCC[C@H](N1)C(=O)OCC(C)(C)C2 (atropisomer, axis not shown) — what was its IC50?
0.1 to 1 µM

Could you share which IC50 value was measured for CCn1c(-c2cccnc2[C@H](C)OC)c2c3cc(ccc31)-c1cc(O)cc(c1)C[C@H](NC(=O)[C@@H](COC1CCN(C(=O)[C@H]3CN3)CC1)C(C)C)C(=O)N1CCC[C@H](N1)C(=O)OCC(C)(C)C2 (atropisomer, axis not shown) ?
1 to 10 µM

* * *

Could you please report measured IC50 for the items listed next?
target: KRAS G13D (Homo sapiens, UniProt P01116+P62937, G13D); experiment: Disruption of BRAF RBD interaction with Ras (FRET / MOA assay, with Cyclophilin A); type: biochemical; conditions: KRAS G13D; read-out: KRAS G13D FRET data IC50
Sequence (P01116 1-169 isoform P01116-2 G13D limits assumed): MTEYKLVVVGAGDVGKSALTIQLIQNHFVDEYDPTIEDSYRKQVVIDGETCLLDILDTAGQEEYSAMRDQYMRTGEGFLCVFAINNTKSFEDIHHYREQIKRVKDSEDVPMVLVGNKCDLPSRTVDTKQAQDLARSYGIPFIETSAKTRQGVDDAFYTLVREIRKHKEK
Sequence (P62937 whole entry): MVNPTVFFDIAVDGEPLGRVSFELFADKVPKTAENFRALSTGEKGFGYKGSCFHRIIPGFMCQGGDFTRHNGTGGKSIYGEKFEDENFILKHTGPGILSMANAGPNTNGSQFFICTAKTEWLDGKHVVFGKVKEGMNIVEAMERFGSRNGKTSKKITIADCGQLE

Which IC50 value belongs to CCn1c(-c2cccnc2[C@H](C)OC)c2c3cc(ccc31)-c1csc(n1)C[C@H](NC(=O)[C@H](C(C)C)N(C)C(=O)[C@H]1CCN(C(=O)CNC)C1)C(=O)N1CCC[C@H](N1)C(=O)OCC(C)(C)C2 [Example A99] ?
1000 to 10000 nM

# lookup: IC50 of CCn1c(-c2cccnc2[C@H](C)OC)c2c3cc(ccc31)-c1csc(n1)C[C@H](NC(=O)[C@H](C(C)C)N(C)C(=O)N1C[C@H](C)N(C)C[C@@H]1C)C(=O)N1CCC[C@H](N1)C(=O)OCC(C)(C)C2 [Example A283]
1000 to 10000 nM

// lookup IC50 for CCn1c(-c2cccnc2[C@H](C)OC)c2c3cc(ccc31)-c1cc(O)cc(c1)C[C@H](NC(=O)C1CCCC1C(F)F)C(=O)N1CCC[C@H](N1)C(=O)OCC(C)(C)C2 (some centres unmarked) [Example A254]
100 to 1000 nM

Looking for the measured IC50 of C=CC(=O)N1CC[C@H](C(=O)N(C)[C@H](C(=O)N[C@H]2Cc3cc(O)cc(c3)-c3ccc4c(c3)c(c(-c3cccnc3)n4C3CC3)CC(C)(C)COC(=O)[C@@H]3CCCN(N3)C2=O)C(C)C)C1 [Example A160] , can you help?
> 10000 nM

Requested field: IC50. Item: CCn1c(-c2cc(N3CCN(C)CC3)cnc2[C@H](C)OC)c2c3cc(ccc31)-c1csc(n1)C[C@H](NC(C)=O)C(=O)N1CCC[C@H](N1)C(=O)OCC(C)(C)C2 [Example A321]
100 to 1000 nM

May I ask what IC50 has been recorded for CCn1c(-c2cccnc2[C@H](C)OC)c2c3cc(ccc31)-c1cc(O)cc(c1)C[C@H](NC(=O)[C@H](C(C)C)N(C)C(=O)[C@H]1CCN(C(=O)CN(C)C)C1)C(=O)N1CCC[C@H](N1)C(=O)OCC(C)(C)C2 [Example A95] ?
10 to 100 nM

Given the compound CCn1c(-c2cccnc2[C@H](C)OC)c2c3cc(ccc31)-c1csc(n1)C[C@H](NC(=O)[C@H](C(C)C)N(C)C(=O)N1CCN(C(=O)CCN(C)C)CC1)C(=O)N1CCC[C@H](N1)C(=O)OCC(C)(C)C2 [Example A459] , what is its reported IC50?
10 to 100 nM

Requested read-out: IC50. Entry: CCn1c(-c2cccnc2[C@H](C)OC)c2c3cc(ccc31)-c1csc(n1)C[C@H](NC(=O)[C@H](C(C)C)N(C)C(=O)N1CCCC13COC3)C(=O)N1CCC[C@H](N1)C(=O)OCC(C)(C)C2 (atropisomer, axis not shown) [Example A528]
100 to 1000 nM

Endpoint output: IC50 of CCn1c(-c2cccnc2[C@H](C)OC)c2c3cc(ccc31)-c1csc(n1)C[C@H](NC(=O)[C@H](C(C)C)N(C)C(=O)N1CC[C@H]3CN(C)C[C@H]31)C(=O)N1CCC[C@H](N1)C(=O)OCC(C)(C)C2 (atropisomer, axis not shown) [Example A471] . Value?
100 to 1000 nM

Name the reported IC50 value associated with the compound CCn1c(-c2cccnc2[C@H](C)OC)c2c3cc(ccc31)-c1csc(n1)C[C@H](NC(=O)[C@H](C(C)C)N(C)C(=O)N1[C@@H](C)CN(C)C[C@@H]1C)C(=O)N1CCC[C@H](N1)C(=O)OCC(C)(C)C2 [Example A609]
1000 to 10000 nM

Find the recorded IC50 belonging to CO[C@@H](COC1CN(C(=O)C#CC(C)(C)N(C)C)C1)C(=O)N[C@H]1Cc2cccc(c2)-c2ccc3c(c2)c(c(-c2cccnc2[C@H](C)OC)n3CC(F)(F)F)CC(C)(C)COC(=O)[C@@H]2CCCN(N2)C1=O [Example A556] and report it.
> 10000 nM
